# credit: EPA's ToxValDB 9.5

test system: Rattus norvegicus; conditions: repeat dose other; oral
Think of 0.2 mg/kg-day as a floor: if LOAEL stands on it or above, it is Satisfied; beneath it, Not satisfied.

Textbook exercise: given the entry [CH3][Hg][Cl] [Methylmercuric(II) chloride] , state whether its LOAEL is greater than or equal to 0.2 mg/kg-day.
Not satisfied

Textbook exercise: given the entry [Cr+6] , state whether its LOAEL is greater than or equal to 0.2 mg/kg-day.
Satisfied

Textbook exercise: given the entry Clc1cc2c(oc3cc(Cl)c(Cl)c(Cl)c32)c(Cl)c1Cl , state whether its LOAEL is greater than or equal to 0.2 mg/kg-day.
Not satisfied

Textbook exercise: given the entry CC(C)=O , state whether its LOAEL is greater than or equal to 0.2 mg/kg-day.
Satisfied

Textbook exercise: given the entry Clc1cc2c(cc1Cl)Oc1cc(Cl)c(Cl)cc1O2 , state whether its LOAEL is greater than or equal to 0.2 mg/kg-day.
Not satisfied

====

For each entry below, report its LC50 value.
test system: Rattus norvegicus; settings: acute; inhalation

Would you mind telling me what LC50 value was observed for N#CCCSCCC#N ?
> 88.9 mg/m3

Would you mind telling me what LC50 value was observed for CC(C)CCC(C)Nc1ccc(NC(C)CCC(C)C)cc1 (stereo not given) ?
> 400 mg/m3

Would you mind telling me what LC50 value was observed for Fc1ccccc1 ?
26900 mg/m3

Would you mind telling me what LC50 value was observed for CCN(CC)c1ccccc1 ?
1.92 mg/L

Would you mind telling me what LC50 value was observed for CCCCOC(=O)c1ccccc1C(=O)OCc1ccccc1 [Benzyl butyl phthalate] ?
> 6.7 mg/L

====

For each entry below, report its LD50 value.
tested on: Rattus norvegicus; conditions: acute; dermal

Would you mind telling me what LD50 value was observed for CC(C)(C)c1cc(Cn2c(=O)n(Cc3cc(C(C)(C)C)c(O)c(C(C)(C)C)c3)c(=O)n(Cc3cc(C(C)(C)C)c(O)c(C(C)(C)C)c3)c2=O)cc(C(C)(C)C)c1O ?
> 2000 mg/kg

Would you mind telling me what LD50 value was observed for CCCCC(CC)CO (stereo not given) ?
> 3000 mg/kg

Would you mind telling me what LD50 value was observed for C=CC(=O)OCCN(C)C [2-(Dimethylamino)ethyl acrylate] ?
891 mg/kg

Would you mind telling me what LD50 value was observed for CCOC(=O)CCl [Ethyl chloroacetate] ?
161 mg/kg

Would you mind telling me what LD50 value was observed for CCN(CC)c1ccccc1 ?
5000 mg/kg

====

test system: Rattus norvegicus; conditions: acute; oral; gavage; Wistar
For each entry below, report its LD50 value.
Return type: number; implicit unit mg/kg.

Would you mind telling me what LD50 value was observed for CCCCCCCCCCCCCCN(C)C ?
1320

Would you mind telling me what LD50 value was observed for C=CC[N+](C)(C)CC=C.[Cl-] [Diallyldimethylammonium chloride] ?
3930

Would you mind telling me what LD50 value was observed for CCN(CC)c1ccccc1 ?
606

Would you mind telling me what LD50 value was observed for CC(O)CN(CC(C)O)CC(C)O (configuration not stated) ?
6500

====

For each entry below, report its LD50 value.
system: Rattus norvegicus; details: acute; oral; gavage; Sprague-Dawley
Return type: number; implicit unit mg/kg.

Quick check: LD50 on Rattus norvegicus, item C=CC[N+](C)(C)CC=C.[Cl-] [Diallyldimethylammonium chloride] ?
2520

Quick check: LD50 on Rattus norvegicus, item c1ccc(Oc2ccccc2)cc1 [Diphenyl oxide] ?
2450

Quick check: LD50 on Rattus norvegicus, item CC(C)CCC(C)Nc1ccc(NC(C)CCC(C)C)cc1 (stereo not drawn) ?
730

Quick check: LD50 on Rattus norvegicus, item O=[N+]([O-])c1cccc(Cl)c1 ?
400

Quick check: LD50 on Rattus norvegicus, item CCCCCCCCCCCCCCCCCCN ?
4800

====

For each entry below, report its LD50 value.
test system: Mus musculus; settings: acute; oral
Please provide the amount together with its unit, number first.

Would you mind telling me what LD50 value was observed for CCOC(=O)CCl [Ethyl chloroacetate] ?
350 mg/kg

Would you mind telling me what LD50 value was observed for C1COCCN1 [Morpholine] ?
525 mg/kg

Would you mind telling me what LD50 value was observed for CCCCOC(=O)c1ccccc1C(=O)OCc1ccccc1 [Benzyl butyl phthalate] ?
4170 mg/kg

Would you mind telling me what LD50 value was observed for CCCCCCCCCCCCCCCCCC(=O)[O-].CCCCCCCCCCCCCCCCCC(=O)[O-].[Ba+2] [Octadecanoic acid, barium salt] ?
1830 mg/kg

====

tested on: Oryctolagus sp.; settings: acute; dermal; New Zealand
For each entry below, report its LD50 value.

Would you mind telling me what LD50 value was observed for Cc1ccc(OP(=O)(Oc2ccc(C)cc2C)Oc2ccc(C)cc2C)c(C)c1 [Trixylyl phosphate] ?
> 2000 mg/kg

Would you mind telling me what LD50 value was observed for CC(O)C(=O)O (configuration not stated) ?
> 2000 mg/kg

Would you mind telling me what LD50 value was observed for CC1=CCC2CC1C2(C)C (configuration not stated) ?
> 5000 mg/kg

Would you mind telling me what LD50 value was observed for CC(C)CCCCCCCOP(OCCCCCCCC(C)C)OCCCCCCCC(C)C ?
> 5000 mg/kg

Would you mind telling me what LD50 value was observed for CN1C(=O)c2ccc([N+](=O)[O-])cc2C1=O [N-Methyl-4-nitrophthalimide] ?
> 2000 mg/kg

Would you mind telling me what LD50 value was observed for CC(C)(c1ccc(Oc2ccc3c(c2)C(=O)OC3=O)cc1)c1ccc(Oc2ccc3c(c2)C(=O)OC3=O)cc1 [4,4'-(4,4'-Isopropylidenediphenoxy)bisphthalic dianhydride] ?
> 2000 mg/kg

Would you mind telling me what LD50 value was observed for Cc1cc(O)c(C(C)(C)C)cc1Sc1cc(C(C)(C)C)c(O)cc1C ?
> 5010 mg/kg

====

For each entry below, report its LD50 value.
system: Rattus norvegicus; conditions: acute; oral; gavage

Would you mind telling me what LD50 value was observed for CCCCCCCCCCCCCCCCCC(=O)OCCOC(=O)CCCCCCCCCCCCCCCCC ?
> 10000 mg/kg

Would you mind telling me what LD50 value was observed for CC(=O)CC(=O)N(C)C [N,N-Dimethylacetoacetamide] ?
≥ 3200 mg/kg

Would you mind telling me what LD50 value was observed for CCCCC(CC)COC(=O)CCCCCCCCC(=O)OCC(CC)CCCC (stereo not drawn) [Bis(2-ethylhexyl) decanedioate] ?
17000 mg/kg

====

system: Rattus norvegicus; settings: acute; oral
recorded endpoint: log10 of LD50 (log10 of the value in mg/kg)
Heads up, the numbers here are log10 of LD50 in mg/kg units.

Would you mind telling me what log10 of LD50 value was observed for Cc1cccc2[nH]c([S-])nc12.Cc1cccc2[nH]c([S-])nc12.[Zn+2] ?
2.90

Would you mind telling me what log10 of LD50 value was observed for C=CC(=O)OCCN(C)C [2-(Dimethylamino)ethyl acrylate] ?
2.73

Would you mind telling me what log10 of LD50 value was observed for CNC=O [N-Methylformamide] ?
3.60

Would you mind telling me what log10 of LD50 value was observed for C1=C\CC/C=C\CC/1 ?
3.38

Would you mind telling me what log10 of LD50 value was observed for CCN(CC)c1ccccc1 ?
2.86

Would you mind telling me what log10 of LD50 value was observed for COC(=O)c1ccccc1C(=O)OC [Dimethyl phthalate] ?
3.84

Would you mind telling me what log10 of LD50 value was observed for COCCl ?
2.91

Would you mind telling me what log10 of LD50 value was observed for NNS(=O)(=O)c1ccc(Oc2ccc(S(=O)(=O)NN)cc2)cc1 [4,4'-Oxybis(benzenesulfohydrazide)] ?
3.36

====

system: Rattus norvegicus; details: acute; oral; gavage; Wistar
Structures can show the parent of a compound that is named as a salt.
recorded endpoint: LD50

Quick check: LD50 on Rattus norvegicus, item Nc1ccc(C=Cc2ccc(N)cc2S(=O)(=O)[O-])c(S(=O)(=O)[O-])c1.[Na+].[Na+] [4,4'-Diamino-2,2'-stilbenedisulfonic acid, disodium salt] ?
> 5000 mg/kg

Quick check: LD50 on Rattus norvegicus, item CCCCCCCCC=O ?
> 5000 mg/kg

Quick check: LD50 on Rattus norvegicus, item CCCCCCCCCCCCCCCCCCN ?
≥ 2000 mg/kg

Quick check: LD50 on Rattus norvegicus, item CC(C)CC(C)OC(=O)/C=C\C(=O)OC(C)CC(C)C (centres undefined) [Bis(1,3-dimethylbutyl) maleate] ?
7460 mg/kg

====

system: Rattus norvegicus; details: uterotrophic; duration: 3 days; oral; Active
For each entry below, report its LEL value.
Return type: number; implicit unit mg/day.

Would you mind telling me what LEL value was observed for CC(C)Oc1ccc2c(=O)c(-c3ccccc3)coc2c1 ?
200

Would you mind telling me what LEL value was observed for C[C@H]1CCC[C@H](O)CCCCCc2cc(O)cc(O)c2C(=O)O1 ?
0.03

Would you mind telling me what LEL value was observed for C#C[C@@]1(OC(=O)CC)C[C@@H]2CC[C@@H]3[C@H](CC[C@@]4(C)[C@H]3CC[C@]4(C#C)OC(=O)CC)[C@H]2C1 ?
0.000156

Would you mind telling me what LEL value was observed for C#C[C@]1(OC(=O)CC)C[C@@H]2CC[C@@H]3[C@H](CC[C@@]4(C)[C@H]3CC[C@]4(C#C)OC(=O)CC)[C@H]2C1 ?
0.01
